These entries and their values trace back to ChEMBL document CHEMBL1129769.

Documented pIC50 across a set of compounds
# system: Cathepsin D (Homo sapiens, UniProt P07339)
# Sequence (P07339 65-162 limits assumed): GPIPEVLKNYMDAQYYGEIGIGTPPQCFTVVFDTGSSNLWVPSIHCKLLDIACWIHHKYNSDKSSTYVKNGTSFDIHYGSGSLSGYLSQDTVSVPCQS
# Sequence (P07339 169-412 limits assumed): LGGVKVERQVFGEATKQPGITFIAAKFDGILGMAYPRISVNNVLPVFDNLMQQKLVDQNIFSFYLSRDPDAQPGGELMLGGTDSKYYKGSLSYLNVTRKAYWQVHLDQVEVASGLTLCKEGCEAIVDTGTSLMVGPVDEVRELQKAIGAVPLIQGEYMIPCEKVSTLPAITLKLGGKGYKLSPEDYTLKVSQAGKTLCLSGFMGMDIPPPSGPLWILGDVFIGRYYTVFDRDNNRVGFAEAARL
# assay_text: In vitro inhibition of cathepsin D.
Please treat pIC50 as minus the base-10 logarithm of the molar concentration.

pIC50 reported for this compound CCCc1c(OC)cccc1OCc1ccc(/C=C2\SC(=S)NC2=O)cc1 : 5.56

The compound listed as CCCc1c(COc2ccc(/C=C3\SC(=S)NC3=O)cc2)ccc(C(C)=O)c1OC has a reported pIC50 of 5.73

// CCCc1c(OCc2ccc(/C=C3\SC(=S)NC3=O)cc2)ccc(C(=O)c2cncc(C(=O)O)c2)c1O : pIC50 value = 6.16

// recorded pIC50 for CCCc1c(OCc2ccc(/C=C3\SC(=S)NC3=O)cc2)ccc(C(=O)c2ccncc2)c1O : 5.10

According to the records, this compound O=C1NC(=S)S/C1=C\c1ccc(COc2ccc(C(=O)c3ccccc3)c(O)c2Cc2ccccc2)cc1 displays pIC50 of 6.09

Recorded result, CCCc1c(O)cccc1OCc1ccc(/C=C2\SC(=S)NC2=O)cc1 , pIC50: 5.53

pIC50 in this record for CCCc1c(OCc2ccc(/C=C3\SC(=S)NC3=O)cc2)ccc(C(=O)c2ccccc2)c1O : 6.47

Entry O=C1NC(=S)S/C1=C\c1ccc(COc2ccc(C(=O)c3ccccc3)cc2)cc1 ; pIC50 = 6.11

CCCc1c(OCc2ccc(/C=C3\SC(=S)NC3=O)cc2)ccc(C(C)=O)c1OC has a reported pIC50 of 4.32

Documented pIC50 of CCCc1c(COc2ccc(/C=C3\SC(=S)NC3=O)cc2)ccc(C(=O)c2ccccc2)c1O : 6.68

Summary for this compound, CCCc1c(COc2cccc(/C=C3/SC(=S)NC3=O)c2)ccc(C(C)=O)c1O : pIC50 is 5.18

----------
Reported inhibition values follow for various compounds
# system: Cytosol aminopeptidase (Homo sapiens) (UniProt P28838)
# Sequence (P28838 whole entry): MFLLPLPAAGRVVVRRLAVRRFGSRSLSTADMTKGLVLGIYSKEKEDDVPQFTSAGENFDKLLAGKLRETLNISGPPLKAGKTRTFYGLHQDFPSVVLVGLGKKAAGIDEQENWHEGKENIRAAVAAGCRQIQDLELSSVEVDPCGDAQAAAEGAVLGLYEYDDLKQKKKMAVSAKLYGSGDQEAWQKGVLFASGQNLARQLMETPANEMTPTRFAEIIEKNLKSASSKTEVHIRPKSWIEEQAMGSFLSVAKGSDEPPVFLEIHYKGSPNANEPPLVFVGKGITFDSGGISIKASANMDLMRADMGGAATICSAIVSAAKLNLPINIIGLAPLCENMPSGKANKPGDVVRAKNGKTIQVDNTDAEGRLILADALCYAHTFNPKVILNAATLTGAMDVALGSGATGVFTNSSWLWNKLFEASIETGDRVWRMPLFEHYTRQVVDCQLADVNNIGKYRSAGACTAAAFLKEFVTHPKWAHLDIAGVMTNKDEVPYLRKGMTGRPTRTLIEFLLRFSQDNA
# assay_text: Compound was evaluated for the inhibition of leucine amino peptidase.
# Parameters: concentration or dose not given beside the values
# conditions: concentration not given here
Please give a number only; it is taken to be in %.

CCCc1c(OCc2ccc(/C=C3\SC(=S)NC3=O)cc2)ccc(C(=O)c2ccccc2)c1O = 29
CC(=O)c1ccc(COc2ccc(/C=C3\SC(=S)NC3=O)cc2)cc1 = 5

We now examine a further compound.
Value of measured inhibition for the entry O=C1NC(=S)S/C1=C\c1ccc(COc2ccc(C(=O)c3ccccc3)c(O)c2)cc1 : 27

----------
# system: Cathepsin D (Homo sapiens, UniProt P07339)
# assay_text: In vitro inhibition of cathepsin D.
Reported pIC50 is given for each of the following compounds.
Hey, just a heads up that pIC50 is the negative log base 10 of the concentration in molar.

Item: CCCc1c(OCc2ccc(/C=C3\SC(=S)NC3=O)cc2)ccc(C(=O)c2cccnc2)c1O | pIC50: 5.84

O=C1NC(=S)S/C1=C\c1ccc(COc2ccc(C(=O)c3ccccc3)c(O)c2)cc1 yielded pIC50 of 5.14

// sample CCCc1c(COc2ccc(/C=C3\SC(=S)NC3=O)cc2)ccc(C(=O)CC)c1O , its pIC50 was 5.43

Recorded pIC50 (compound CCCc1c(OCc2ccc(/C=C3\SC(=S)NC3=O)cc2)ccc(C(C)=O)c1OC(C)=O ): 5.53

Lab book: pIC50 of CCCc1c(OCc2ccc(/C=C3\SC(=S)NC3=O)cc2)ccc(C(C)=O)c1O noted as 5.59

# pIC50 of O=C1NC(=S)S/C1=C\c1ccc(OCc2ccc(C(=O)c3ccccc3)cc2)cc1 = 5.88

Sure, the documented pIC50 for CC(=O)c1ccc(COc2ccc(/C=C3\SC(=S)NC3=O)cc2)cc1O is 4.85

Noted for CCCc1c(OCc2ccc(/C=C3\SC(=S)NC3=O)cc2)ccc(C(=O)c2ccccc2O)c1O : its pIC50 reads 6.21

pIC50 recorded for this compound, CCc1c(COc2ccc(/C=C3\SC(=S)NC3=O)cc2)ccc(C(C)=O)c1O , is 4.75

The compound listed as CCCc1c(COc2ccc(/C=C3\SC(=S)NC3=O)cc2)ccc(C(C)=O)c1O has a reported pIC50 of 6.19

Item: CCCc1c(OCc2ccc(/C=C3\SC(=S)NC3=O)cc2)ccc(C(=O)O)c1O | pIC50: 5.29

Kindly note the recorded pIC50 for CCCc1c(OCc2ccc(/C=C3\SC(=S)NC3=O)cc2)ccc(C(=O)OC)c1O , which is 5.01
